Reference source: patent US20130296434A1

# TEST_DETAILS: Pharmacokinetics of single and repeated oral doses of PDS in healthy male subjects
# Type: in vivo, human
# CONDITION: male, human, plasma, po, 1600 mg, 1600 mg t.i.d., Day 7 (repeated oral administration), n = 6; mean
MEASURE: AUC(0-t) (ng·h/mL)
Field: numeric (ng·h/mL). Do not append units.

Need AUC(0-t), item O=S(=O)([O-])CCCS(=O)(=O)[O-].[Na+].[Na+] [PDS]
25800

----------
# TEST_DETAILS: Pharmacokinetics of PDS after single and multiple oral administration in AA amyloidosis patients
# Assay type: in vivo
# CONDITION: human, plasma, po, 400 mg, Dose 400 (mg BID), Month 0 single oral dose, n = 2, mean, read-out: AUC(0-tlast)
MEASURE: AUC(0-t) (ng·h/mL)
Field: numeric (ng·h/mL). Do not append units.

Need AUC(0-t), item O=S(=O)([O-])CCCS(=O)(=O)[O-].[Na+].[Na+] [PDS]
11700
